Origin of values: the supplement of paper PMC9233669

- Test system: biotinyl-Val-oxazolone
- ASSAY_METHOD_TEXT: self-aminoacylation, catalytic enhancement (BVO) (fold over background); higher = more active; k-Seq, kA / k0A0; sequences stand for … in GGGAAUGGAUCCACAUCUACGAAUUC…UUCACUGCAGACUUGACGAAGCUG
Fewer inactive variants are shown than the library holds.
param class (str): category from self-aminoacylation; see ranges bin 1 = under 0.9, bin 2 = from 0.9 up to 3, bin 3 = 3 and over

Below, 5 sequences whose answers are already recorded.
- CHAIN_SEQUENCE: "AAGUUUGAUAAUAGUCCCAAG [Fam3.1 aminoacylation ribozyme variant]"
  CLASS_NAME: "bin 1"
- CHAIN_SEQUENCE: "UAGUUUUCUAAUAGUCGCAAG [Fam3.1 aminoacylation ribozyme variant]"
  CLASS_NAME: "bin 2"
- CHAIN_SEQUENCE: "AUGCACCUAGGUCAUCGAGUG [Fam2.2 aminoacylation ribozyme variant]"
  CLASS_NAME: "bin 2"
- CHAIN_SEQUENCE: "CUACUUCGAACAAUCUGUCUG [Fam1A.1 aminoacylation ribozyme variant]"
  CLASS_NAME: "bin 1"
- CHAIN_SEQUENCE: "AUCACCUUGGUCAUCGAGUGA [Fam2.1 aminoacylation ribozyme variant]"
  CLASS_NAME: "bin 3"

Given ACUACCCGGGUCAUCGAGUGA [Fam2.1 aminoacylation ribozyme variant] , name the class its self-aminoacylation places it in.
bin 3

Given AUUACCGUGGUAAUCGAGUGA [Fam2.1 aminoacylation ribozyme variant] , name the class its self-aminoacylation places it in.
bin 3

Given CUACUUCAAACAAUCGGCCAG [Fam1A.1 aminoacylation ribozyme variant] , name the class its self-aminoacylation places it in.
bin 2

Given CCACCCUUCAAGCAAUAGGUC [Fam1B.1 aminoacylation ribozyme variant] , name the class its self-aminoacylation places it in.
bin 1

Given AUUACCCUGGUCAGAGAGUGA [Fam2.1 aminoacylation ribozyme variant] , name the class its self-aminoacylation places it in.
bin 3
